ASSAY TARGET: Calcium-dependent protein kinase 4 (Plasmodium falciparum (isolate 3D7))
ASSAY TEXT: PfCDPK4 kinase inhibitors, biochemical, TCAMS library (AID 1159588)
EXPERIMENTAL SETUP: recombinant PfCDPK4, Kinase-Glo ATP depletion luminescence
Measured potencies and affinities stand elsewhere. Active and inactive are the calls of the source. The limit is not given here; nearly all actives have IC50 up to about 0.91 µM.
MEASUREMENT NAME: outcome

Examples from the recorded data:
>  <COMPOUND>
CN1CCN(Cc2ccc(-c3cc4c(Nc5ccc(OCc6cccc(F)c6)c(Cl)c5)ncnc4s3)[nH]2)CC1

>  <RESULT>
inactive

$$$$
>  <COMPOUND>
CCOC(=O)c1ccc2nc(-c3ccc(C(=O)NCc4ccc(C(C)(C)C)cc4)cc3)[nH]c2c1

>  <RESULT>
inactive

$$$$
>  <COMPOUND>
CC(C)CCN1CCC(Oc2ccc(NC(=O)c3ccsc3)cc2Cl)CC1

>  <RESULT>
inactive

$$$$
>  <COMPOUND>
Cc1cc2nc(-c3ccc(C(=O)NCc4ccc(Cl)c(Cl)c4)cc3)[nH]c2cc1C

>  <RESULT>
inactive

$$$$
>  <COMPOUND>
O=C(Nc1ccc(C2=NC3CCCCC3N2)cc1)Nc1ccc(C2=NC3CCCCC3N2)cc1 (centres undefined)

>  <RESULT>
inactive

$$$$
>  <COMPOUND>
CC(C)(C)C(=O)Nc1ccccc1Oc1ccc(Cl)cc1

>  <RESULT>
inactive

$$$$

stdin: For the compound shown here, `CN1CCN(CCCNc2ncc3c(-c4ccc(NC(=O)Nc5cc(C(F)(F)F)ccc5F)c(F)c4)nn(C)c3n2)CC1` , give the reported outcome.
stdout: inactive

stdin: For the compound shown here, `CC(C)(C)OC(=O)N1CCC(C2CCN(C(=O)OC(C)(C)C)CC2)CC1` , give the reported outcome.
stdout: inactive

stdin: For the compound shown here, `CCN(CC)CCN(Cc1ccc(-c2ccc(C(F)(F)F)cc2)cc1)C(=O)Cn1c(CCc2cccc(C#N)c2)nc(=O)c2ccccc21` , give the reported outcome.
stdout: inactive

* * *

ASSAY TARGET: Plasmodium falciparum protein kinase 6 (PK6, PF3D7_1337100) (UniProt Q8IDW1)
Sequence (Q8IDW1 1-305): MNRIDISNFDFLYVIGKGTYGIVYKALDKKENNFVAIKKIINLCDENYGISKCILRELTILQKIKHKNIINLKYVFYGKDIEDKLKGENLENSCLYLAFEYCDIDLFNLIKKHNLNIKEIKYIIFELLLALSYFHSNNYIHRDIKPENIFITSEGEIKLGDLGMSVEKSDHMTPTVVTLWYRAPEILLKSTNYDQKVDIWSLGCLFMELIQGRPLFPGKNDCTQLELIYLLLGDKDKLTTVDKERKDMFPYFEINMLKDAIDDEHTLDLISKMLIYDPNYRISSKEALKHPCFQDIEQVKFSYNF
ASSAY TEXT: PfPK6 kinase inhibitors, biochemical, TCAMS library (AID 1159586)
EXPERIMENTAL SETUP: recombinant PfPK6, Kinase-Glo ATP depletion luminescence
Measured potencies and affinities stand elsewhere. The source made the active and inactive calls. No rule for the calls is given here.
MEASUREMENT NAME: outcome

Examples from the recorded data:
>  <COMPOUND>
FC(F)(F)c1ccc2nc(-c3ccc(-c4ccc(CNCCc5ccncc5)cc4)cc3)[nH]c2c1

>  <RESULT>
inactive

$$$$
>  <COMPOUND>
CCCCCCC(N)c1ccc(OCCCOc2ccc(C(N)CCCCCC)cc2)cc1 (centres undefined)

>  <RESULT>
inactive

$$$$
>  <COMPOUND>
CCN(CC)CCNc1ccnc2ccc3ccccc3c12

>  <RESULT>
inactive

$$$$
>  <COMPOUND>
COc1ccc(N2CCN(CCCCNC(=O)c3ccc(/C=C/c4ccc(Cl)c(Cl)c4)cc3)CC2)c(OC)c1

>  <RESULT>
inactive

$$$$
>  <COMPOUND>
COc1cccc(NC(=O)[C@H](C(C)C)n2c(=O)[nH]c3ccccc3c2=O)c1

>  <RESULT>
inactive

$$$$

Consider the additional compound presented here.
stdin: Hello, I am looking for reported outcome with Plasmodium falciparum protein kinase 6 (PK6, PF3D7_1337100) (UniProt Q8IDW1) for `COc1ccc2nccc([C@@H](O)CN3CCC(NC(=O)/C(=C/c4ccccc4)c4ccc(-c5ccccc5)cc4)CC3)c2c1` . Could you help?
stdout: inactive
